Target: HLA-DRB1*04:01 (Homo sapiens, UniProt P01903+P01911, A100K/A169T/F76Y/I96L/K127E/L162R/M171V/N62H/P40V/Q125Y/R42H/S133A/S149N/S66Y/V115G/V209L/W38E)
Construct: EBV transformed homozygous cell lines were used as sources of MHC molecules; endogenous in cells; host or cells: EBV transformed homozygous cell lines
Assay: HLA class II peptide binding, inhibition of radiolabeled peptide binding to purified MHC
Conditions: citrullinated 15-mer (X); purified MHC, inhibition of radiolabeled peptide binding; dash = IC50 >40,000 nM; read-out: DRB1*04:01 binding capacity, Cit peptide (IC50 nM)
Square brackets hold non-standard residues; d marks the D form. Peptide text beside a SMILES is read from it. Cit = NC(=O)NCCC[C@H](N)C(=O)O
Recorded metric: IC50 (nM)
Give the value in nM but do not write nM after it.

CC(C)C[C@H](NC(=O)[C@H](CC(=O)O)NC(=O)[C@H](C)NC(=O)[C@H](Cc1ccccc1)NC(=O)[C@H](CCCCN)NC(=O)[C@H](CO)NC(=O)[C@H](CCCCN)NC(=O)[C@@H](N)Cc1ccc(O)cc1)C(=O)N[C@@H](CO)C(=O)N[C@@H](CCC(=O)O)C(=O)N[C@@H](C)C(=O)N[C@@H](C)C(=O)N[C@@H](CC(N)=O)C(=O)N[C@@H](CCCNC(N)=O)C(=O)N[C@@H](CC(N)=O)C(=O)O [YKSKFADLSEAANXN] (H-YKSKFADLSEAAN[Cit]N-OH)	1110

Would you kindly look at the next entry?
*Q* For the compound shown here, CC(C)C[C@H](NC(=O)[C@H](CC(N)=O)NC(=O)[C@H](CC(=O)O)NC(=O)[C@H](CCCNC(=N)N)NC(=O)[C@H](CCC(=O)O)NC(=O)[C@@H](NC(=O)[C@H](CCC(=O)O)NC(=O)[C@@H](NC(=O)[C@H](CCCNC(N)=O)NC(=O)[C@H](C)NC(=O)[C@H](CCCCN)NC(=O)[C@H](CC(=O)O)NC(=O)[C@@H](N)CC(N)=O)C(C)C)C(C)C)C(=O)N[C@@H](C)C(=O)N[C@@H](CCC(=O)O)C(=O)O [NDKAXVEVERDNLAE] (H-NDKA[Cit]VEVERDNLAE-OH) , give the reported IC50.
*A* 905

* * *

Target: HLA-DRB1*04:01 (Homo sapiens, UniProt P01903+P01911, A100K/A169T/F76Y/I96L/K127E/L162R/M171V/N62H/P40V/Q125Y/R42H/S133A/S149N/S66Y/V115G/V209L/W38E)
Construct: EBV transformed homozygous cell lines were used as sources of MHC molecules; endogenous in cells; host or cells: EBV transformed homozygous cell lines
Test: HLA class II peptide binding, inhibition of radiolabeled peptide binding to purified MHC
Settings: citrullinated 15-mer peptide (X = citrulline); purified HLA-DRB1*04:01; read-out: DRB1*04:01 binding capacity, Cit peptide (IC50 nM)
Square brackets hold non-standard residues; d marks the D form. Peptide text beside a SMILES is read from it. Cit = NC(=O)NCCC[C@H](N)C(=O)O
Measured IC50 of individual entries

C[C@H](NC(=O)CNC(=O)[C@H](CCCCN)NC(=O)[C@@H]1CCCN1C(=O)CNC(=O)[C@H](CC(=O)O)NC(=O)[C@H](CCCCN)NC(=O)CNC(=O)[C@H](CO)NC(=O)[C@@H]1CCCN1C(=O)CN)C(=O)N[C@@H](CCCNC(N)=O)C(=O)NCC(=O)N[C@@H](CC(=O)O)C(=O)N[C@@H](CO)C(=O)O [GPSGKDGPKGAXGDS] (H-GPSGKDGPKGA[Cit]GDS-OH; N-terminus and C-terminus assumed)	> 40000 nM

*Q* For the molecule shown here, CC(C)C[C@H](NC(=O)[C@@H](NC(=O)[C@H](C)NC(=O)[C@H](C)NC(=O)[C@@H](NC(=O)[C@@H](N)CC(C)C)C(C)C)C(C)C)C(=O)N[C@@H](CCCNC(N)=O)C(=O)N[C@@H](CS)C(=O)N[C@@H](CCC(N)=O)C(=O)NCC(=O)N[C@@H](CCC(N)=O)C(=O)N[C@@H](CC(=O)O)C(=O)N[C@H](C(=O)N[C@@H](CCC(N)=O)C(=O)N[C@@H](CCC(=O)O)C(=O)O)C(C)C [LVAAVLXCQGQDVQE] (H-LVAAVL[Cit]CQGQDVQE-OH) , give the reported IC50.
*A* 32700 nM

*Q* For the molecule shown here, CSCC[C@H](NC(=O)[C@@H]1CCCN1C(=O)CNC(=O)[C@H](CCC(N)=O)NC(=O)[C@H](C)NC(=O)CNC(=O)[C@H](C)NC(=O)[C@H](CCC(=O)O)NC(=O)CNC(=O)[C@H](CCCNC(N)=O)NC(=O)[C@H](CC(=O)O)NC(=O)CN)C(=O)NCC(=O)N1CCC[C@H]1C(=O)N[C@@H](CO)C(=O)O [GDXGEAGAQGPMGPS] (H-GD[Cit]GEAGAQGPMGPS-OH; N-terminus and C-terminus assumed) , give the reported IC50.
*A* > 40000 nM
